growth values, listed per item
tested on: IGROV1 ovarian; test: NCI-60 one-dose screen, 48 h (100 = growth as untreated, 0 = no growth, -100 = all killed); details: 10 µM unless noted
This is part of a sample that, as a whole, favours compounds with a hit. Of some 83,000 tested, about 20% had one in any assay.

Smiles input	growth, %
Cc1nn(-c2ccccc2)c(-n2ccnc2)c1/C=N/Nc1nc(-c2ccc(F)cc2)cs1	87.4
COc1ccc(-c2nc(NN)c3c(C)nn(-c4ccc(F)cc4)c3n2)cc1	51.2
CC(C)OC(=O)Nc1ccc(-c2nc(-c3cccc(OCCN4CCOCC4)c3)c(-c3ccnc(Br)c3)[nH]2)cc1	45.7
N#C/C(=C\c1cccc2cnccc12)n1nnc2cccc(F)c21	26.5
